# Tested on: OVCAR-3 ovarian
# Procedure Details: NCI tumour cell line growth inhibition, 48 h
Property Name: GI50

Kindly state the measured GI50 obtained for C[C@H]1CN(C2COC2)CCN1c1ccc(Nc2cc(-c3ccnc(N4CCn5c(cc6c5CC(C)(C)C6)C4=O)c3CO)cn(C)c2=O)nc1 with OVCAR-3 ovarian. 37.4 µM

Kindly state the measured GI50 obtained for C[C@@H](NC(=O)c1ccc(F)cc1)c1ccc2c(c1)CCN2C(=O)C1CCOCC1 with OVCAR-3 ovarian. > 100 µM

Kindly state the measured GI50 obtained for CC(=O)N(O)c1ccc(/C=C/c2ccccc2)cc1 with OVCAR-3 ovarian. 2.55 µM

This collection of values is drawn from PubChem BioAssay (NCI).
